# Tested on: Staphylococcus aureus
# Experiment summary: Antibacterial activity against gram positive methicillin-resistant Staphylococcus aureus HCCB 20252 assessed as inhibition of bacterial growth incubated for 20 hrs by microtiter plate method
# Format: functional
Recorded MIC, one value per entry.
Measured attribute: MIC (ng/mL)

Compound: C=C(NC(=O)C(=C)NC(=O)c1csc(-c2ccc3c(n2)-c2csc(n2)[C@@H]2CSC(=O)c4[nH]c5cccc(c5c4C)COC(=O)CC[C@H](NC(=O)c4csc(n4)/C(=C/C)NC(=O)[C@H]([C@@H](C)O)NC(=O)c4csc-3n4)c3nc(cs3)C(=O)N2)n1)C(=O)O
System tested: Staphylococcus aureus
Numeric readout: 64

Compound: C=C(NC(=O)c1csc(-c2nc3c(cc2O)-c2nc(cs2)C(=O)N[C@@H]([C@@H](C)O)C(=O)N/C(=C\C)c2nc(cs2)C(=O)N[C@H]2C[C@H](O)C(=O)OCc4cccc5sc(c(C)c45)C(=O)SC[C@H](NC(=O)c4csc2n4)c2nc-3cs2)n1)C(N)=O
System tested: Staphylococcus aureus
Numeric readout: 8

Compound: C=C(NC(=O)c1csc(-c2nc3c(cc2O)-c2nc(cs2)C(=O)N[C@@H]([C@@H](C)O)C(=O)N/C(=C\C)c2nc(cs2)C(=O)N[C@H]2C[C@H](O)C(=O)OCc4cccc5[nH]c(c(C)c45)C(=O)SC[C@H](NC(=O)c4csc2n4)c2nc-3cs2)n1)C(N)=O
System tested: Staphylococcus aureus
Numeric readout: 8

Compound: C=C(NC(=O)c1csc(-c2nc3c(cc2O)-c2nc(cs2)C(=O)N[C@@H]([C@@H](C)O)C(=O)N/C(=C\C)c2nc(cs2)C(=O)N[C@H]2CCC(=O)OCc4cccc5sc(c(C)c45)C(=O)SC[C@H](NC(=O)c4csc2n4)c2nc-3cs2)n1)C(N)=O
System tested: Staphylococcus aureus
Numeric readout: 8

Compound: C=C(NC(=O)C(=C)NC(=O)c1csc(-c2ccc3c(n2)-c2csc(n2)[C@@H]2CSC(=O)c4sc5cccc(c5c4C)COC(=O)CC[C@H](NC(=O)c4csc(n4)/C(=C/C)NC(=O)[C@H]([C@@H](C)O)NC(=O)c4csc-3n4)c3nc(cs3)C(=O)N2)n1)C(=O)O
System tested: Staphylococcus aureus
Numeric readout: 32
